Assign IC50 to each entry below.
assayedSystem: human recombinant JAK2 protein (Homo sapiens, UniProt O60674)
Construct: purchased Carna Biosciences 08-045
Sequence (O60674 826-1132 limits assumed): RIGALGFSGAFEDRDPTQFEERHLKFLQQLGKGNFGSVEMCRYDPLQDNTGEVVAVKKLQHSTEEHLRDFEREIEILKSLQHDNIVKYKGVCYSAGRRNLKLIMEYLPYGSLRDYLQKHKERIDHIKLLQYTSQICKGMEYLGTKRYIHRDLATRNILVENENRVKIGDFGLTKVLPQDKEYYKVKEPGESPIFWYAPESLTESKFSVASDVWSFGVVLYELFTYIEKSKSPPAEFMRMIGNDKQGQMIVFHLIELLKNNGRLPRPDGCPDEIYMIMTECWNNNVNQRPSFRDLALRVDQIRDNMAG
experimentSummary: JAK2 Inhibition Assay (HTRF kinase assay)
Format: biochemical
conditions: human recombinant JAK2, 2.5 μM ATP substrate solution

Query: API: value(readout= IC50, system= human recombinant JAK2 protein (Homo sapiens, UniProt O60674), query= C[C@@]12CN(C(=O)C3CC3)C[C@]1(C)CN(c1nc(Nc3cnn(CCO)c3)ncc1Cl)C2 )
Response: 1 nM

Query: What would you report for Cn1cc(Nc2ncc(Cl)c(N3C[C@H]4CN(C(=O)C5CC5)C[C@@]4(C)C3)n2)cn1 (racemic) ?
Response: 2.6 nM

Query: What would you report for Cn1cc(Nc2ncc(Cl)c(N3C[C@@H]4CN(C(=O)C5CC5)C[C@]4(C)C3)n2)cn1 ?
Response: 1.7 nM
